- assay.target: cAMP and cAMP-inhibited cGMP 3',5'-cyclic phosphodiesterase 10A (Rattus norvegicus, UniProt Q9QYJ6)
- Sequence (Q9QYJ6 whole entry): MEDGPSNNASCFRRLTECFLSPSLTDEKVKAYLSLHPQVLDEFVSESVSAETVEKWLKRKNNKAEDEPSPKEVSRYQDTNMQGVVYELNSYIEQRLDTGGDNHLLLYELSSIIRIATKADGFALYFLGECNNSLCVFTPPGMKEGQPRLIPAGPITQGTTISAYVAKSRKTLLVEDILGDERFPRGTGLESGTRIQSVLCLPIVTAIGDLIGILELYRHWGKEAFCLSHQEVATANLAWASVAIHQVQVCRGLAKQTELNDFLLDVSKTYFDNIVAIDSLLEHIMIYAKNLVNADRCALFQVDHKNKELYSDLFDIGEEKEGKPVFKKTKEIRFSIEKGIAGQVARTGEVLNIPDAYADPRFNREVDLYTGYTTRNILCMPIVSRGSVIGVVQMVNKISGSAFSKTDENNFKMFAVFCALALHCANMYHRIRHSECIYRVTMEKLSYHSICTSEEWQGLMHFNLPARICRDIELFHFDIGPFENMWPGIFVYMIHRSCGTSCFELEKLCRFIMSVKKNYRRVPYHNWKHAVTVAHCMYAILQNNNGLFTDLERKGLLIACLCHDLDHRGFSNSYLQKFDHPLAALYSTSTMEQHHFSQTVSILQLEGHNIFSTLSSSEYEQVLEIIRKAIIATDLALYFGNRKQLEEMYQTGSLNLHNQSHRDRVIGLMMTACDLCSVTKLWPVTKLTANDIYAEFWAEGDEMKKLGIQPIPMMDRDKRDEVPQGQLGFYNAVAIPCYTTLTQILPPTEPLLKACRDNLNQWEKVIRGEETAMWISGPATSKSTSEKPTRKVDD
observable: pIC50
Here pIC50 is given on a logarithmic scale as minus log10 of the concentration in mol/L.

Kindly indicate its recorded pIC50. Item: Cc1ccc(C)n2nc(CCc3nc(-c4ccccc4)cn3[11CH3])nc12 9.41

* * *

- assay.target: UniProtKB Q13946
- Sequence (Q13946 whole entry): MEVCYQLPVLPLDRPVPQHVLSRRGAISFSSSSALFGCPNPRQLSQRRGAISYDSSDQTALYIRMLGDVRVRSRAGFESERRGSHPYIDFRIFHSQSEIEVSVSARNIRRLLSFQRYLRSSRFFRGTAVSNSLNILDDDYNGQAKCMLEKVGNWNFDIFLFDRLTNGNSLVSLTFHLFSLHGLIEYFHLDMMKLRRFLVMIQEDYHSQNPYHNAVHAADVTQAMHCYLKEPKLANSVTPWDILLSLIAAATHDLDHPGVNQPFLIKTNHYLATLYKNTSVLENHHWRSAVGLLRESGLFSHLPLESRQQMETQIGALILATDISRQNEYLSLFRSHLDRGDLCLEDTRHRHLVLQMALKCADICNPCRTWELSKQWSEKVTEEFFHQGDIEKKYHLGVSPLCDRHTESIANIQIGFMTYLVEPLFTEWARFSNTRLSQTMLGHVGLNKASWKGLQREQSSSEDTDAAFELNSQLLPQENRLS
observable: pIC50
Here pIC50 is given on a logarithmic scale as minus log10 of the concentration in mol/L.

Report value: pIC50, system: UniProtKB Q13946, compound: Cc1ccc([N+](=O)[O-])cc1S(=O)(=O)N(C)C 6.59

* * *

- assay.notes: Lipophilicity, logD of the compound in Octanol/potassium phosphate buffer at pH 7.4 after 1 hr by HPLC analysis
- Assay type: physicochemical
observable: logD at 1 h
Just the number, please.

Kindly indicate its recorded logD at 1 h. Item: CC(C)Oc1cccc2c1C(=O)N(CCc1nc3ccccc3c(=O)n1-c1ccc(O[11CH3])cc1)C2=O 3.19

* * *

- assay.target: cAMP and cAMP-inhibited cGMP 3',5'-cyclic phosphodiesterase 10A (Homo sapiens)
- assay.notes: Inhibition of human PDE10
pIC50: −log10 of the molar value.
observable: pIC50

Kindly indicate its recorded pIC50. Item: CC(C)C(=O)c1c(C(C)C)nn2ccccc12 [IBUDILAST] ≥ 5.00

* * *

- assay.notes: Metabolic stability in baboon brain assessed as parent compound remaining incubated for 90 mins
- Type: ADME, tissue-based, Papio
- conditions: read-out: Stability
observable: remaining at 1.5 h (%)
The reply should be a number in %, with the unit left off.

chemical.string	quantitative.readout
[11CH3]n1cc(-c2ccncc2)c(-c2ccc(OCc3ccc4ccccc4n3)cc2)n1	30

Kindly indicate its recorded remaining at 1.5 h. Item: [11CH3]N(c1cc(N2CC[C@@H](F)C2)nc2cc(-c3cnc4c(n3)CCCC4)nn12)C1CCOCC1 50

* * *

- assay.notes: Metabolic stability in mouse plasma assessed as parent compound remaining incubated for 30 mins by HPLC analysis
- Type: ADME, cell-free
- conditions: read-out: Stability
observable: remaining at 0.5 h (%)
The reply should be a number in %, with the unit left off.

Kindly indicate its recorded remaining at 0.5 h. Item: COc1cc(Br)cc2c1nc(C)c1c(C)nc(-c3ccc([18F])nc3)n12 64

* * *

We begin with a simple list: items and their reported IC50.
- assay.target: cAMP and cAMP-inhibited cGMP 3',5'-cyclic phosphodiesterase 10A (Homo sapiens, UniProt Q9Y233)
- Sequence (Q9Y233 whole entry): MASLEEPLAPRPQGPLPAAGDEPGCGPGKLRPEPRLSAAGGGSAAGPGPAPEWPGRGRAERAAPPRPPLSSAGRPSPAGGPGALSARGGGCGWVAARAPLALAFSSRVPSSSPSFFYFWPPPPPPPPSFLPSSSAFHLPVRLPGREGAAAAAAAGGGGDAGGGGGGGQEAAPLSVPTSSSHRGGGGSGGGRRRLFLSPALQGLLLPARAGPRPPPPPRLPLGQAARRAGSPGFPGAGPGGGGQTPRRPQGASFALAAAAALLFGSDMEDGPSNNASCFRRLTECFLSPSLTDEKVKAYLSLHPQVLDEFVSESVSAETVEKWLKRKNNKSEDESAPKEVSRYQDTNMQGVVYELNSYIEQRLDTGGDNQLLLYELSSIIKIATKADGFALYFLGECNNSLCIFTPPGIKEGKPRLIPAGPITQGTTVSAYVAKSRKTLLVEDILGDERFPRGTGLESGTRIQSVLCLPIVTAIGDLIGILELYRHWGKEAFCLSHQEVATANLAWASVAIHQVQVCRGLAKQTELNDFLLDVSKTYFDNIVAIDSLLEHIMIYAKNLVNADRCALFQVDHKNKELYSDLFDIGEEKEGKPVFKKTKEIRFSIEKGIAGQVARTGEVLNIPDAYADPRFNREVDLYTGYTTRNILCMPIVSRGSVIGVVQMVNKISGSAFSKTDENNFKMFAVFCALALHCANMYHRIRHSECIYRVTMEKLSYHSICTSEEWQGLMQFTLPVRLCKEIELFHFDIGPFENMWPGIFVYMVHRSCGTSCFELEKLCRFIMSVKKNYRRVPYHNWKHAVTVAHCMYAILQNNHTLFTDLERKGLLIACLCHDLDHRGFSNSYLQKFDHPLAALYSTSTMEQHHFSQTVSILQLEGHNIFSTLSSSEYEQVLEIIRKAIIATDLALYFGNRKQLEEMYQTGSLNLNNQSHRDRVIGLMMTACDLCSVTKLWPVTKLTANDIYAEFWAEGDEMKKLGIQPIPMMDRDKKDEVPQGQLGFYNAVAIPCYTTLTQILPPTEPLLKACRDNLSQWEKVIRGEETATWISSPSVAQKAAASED
- assay.notes: Inhibition of human PDE10A
The reply should be a number in nM, with the unit left off.

chemical.string	observable	quantitative.readout
COc1ccc2nnc3c(C)nc(-c4cc(OCCCC[18F])ccc4F)n3c2n1	IC50	7.3

Kindly indicate its recorded IC50. Item: COc1ccc2nnc3c(C)nc(-c4cc(OCCC[18F])ccc4F)n3c2n1 7.3

* * *

- assay.target: cAMP and cAMP-inhibited cGMP 3',5'-cyclic phosphodiesterase 10A (Homo sapiens, UniProt Q9Y233)
- assay.notes: Binding affinity to full length human PDE10A assessed as dissociation constant using [3H]-cAMP as substrate
observable: pKd
Here pKd is given on a logarithmic scale as minus log10 of the concentration in mol/L.

Kindly indicate its recorded pKd. Item: [18F]CCn1cc(-c2ccncc2)c(-c2ccc(OCc3ccc4ccccc4n3)cc2)n1 8.50

* * *

We begin with a simple list: items and their reported IC50.
- assay.target: cAMP and cAMP-inhibited cGMP 3',5'-cyclic phosphodiesterase 10A (Homo sapiens)
- assay.notes: Inhibition of PDE10A (unknown origin)
The reply should be a number in nM, with the unit left off.

Here are 6 compounds together with their reported answers.
compound	quantitative.readout
[11CH3]Oc1cn(-c2ccc(C3CCOCC3)cc2F)nc(-c2ccnn2-c2ccccc2)c1=O	0.77
CC([18F])C(=O)N1CCC(c2nccnc2Oc2ccc(C(=O)c3nc4ccccc4[nH]3)cc2)CC1 (configuration not stated)	0.13
Cc1cnc(COc2ccc(-c3nn(CC[18F])cc3-c3ccncc3)cc2)c(C)c1	2
CC(=O)N1CCC(c2nccnc2Oc2ccc(C(=O)c3nc4ccccc4[nH]3)cc2)CC1	0.18
[18F]CCn1cc(-c2ccncc2)c(-c2ccc(OCc3ccc4ccccc4n3)cc2)n1	0.5
[11CH3]N(c1cc(N2CC[C@@H](F)C2)nc2cc(-c3cnc4c(n3)CCCC4)nn12)C1CCOCC1	0.06

Now consider the entry below.
Kindly indicate its recorded IC50. Item: COc1cc2nncc(-c3cnc(NC(C)C)c(C)c3)c2cc1O[11CH3] 1.9

* * *

- assay.notes: Metabolic stability in cynomolgus monkey assessed as parent compound remaining incubated for 30 mins in presence of NADPH
- Assay type: ADME, Macaca fascicularis
- conditions: read-out: Stability
observable: remaining at 0.5 h (%)
The reply should be a number in %, with the unit left off.

Kindly indicate its recorded remaining at 0.5 h. Item: Cc1ccc(C)n2nc(CCc3nc(-c4ccccc4)cn3[11CH3])nc12 27

* * *

- assay.target: cGMP-dependent 3',5'-cyclic phosphodiesterase (Homo sapiens, UniProt O00408)
- Sequence (O00408 whole entry): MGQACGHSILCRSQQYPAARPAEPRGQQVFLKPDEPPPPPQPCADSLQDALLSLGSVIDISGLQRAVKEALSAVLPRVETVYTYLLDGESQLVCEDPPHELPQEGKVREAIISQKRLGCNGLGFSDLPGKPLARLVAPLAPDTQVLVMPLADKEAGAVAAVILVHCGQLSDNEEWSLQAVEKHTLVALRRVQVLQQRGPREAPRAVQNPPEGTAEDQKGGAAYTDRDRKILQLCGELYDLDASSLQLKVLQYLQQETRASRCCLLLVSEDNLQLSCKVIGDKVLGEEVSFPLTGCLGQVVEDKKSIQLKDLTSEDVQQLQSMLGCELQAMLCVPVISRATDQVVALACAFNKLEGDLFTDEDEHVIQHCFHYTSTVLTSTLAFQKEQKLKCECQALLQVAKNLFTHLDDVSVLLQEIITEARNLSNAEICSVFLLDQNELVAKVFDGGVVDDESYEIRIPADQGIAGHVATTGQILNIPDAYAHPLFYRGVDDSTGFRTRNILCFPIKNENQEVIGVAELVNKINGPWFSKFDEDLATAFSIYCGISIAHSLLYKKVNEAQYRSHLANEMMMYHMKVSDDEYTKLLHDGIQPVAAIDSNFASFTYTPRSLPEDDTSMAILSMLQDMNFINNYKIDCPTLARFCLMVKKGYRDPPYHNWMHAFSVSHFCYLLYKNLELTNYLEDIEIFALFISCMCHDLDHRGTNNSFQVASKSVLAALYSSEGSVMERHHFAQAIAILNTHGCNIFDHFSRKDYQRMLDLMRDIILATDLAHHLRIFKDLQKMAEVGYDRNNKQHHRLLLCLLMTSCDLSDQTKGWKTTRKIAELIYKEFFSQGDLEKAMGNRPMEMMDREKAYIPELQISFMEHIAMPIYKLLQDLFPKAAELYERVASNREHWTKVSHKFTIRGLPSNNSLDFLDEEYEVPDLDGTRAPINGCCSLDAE
- assay.notes: Inhibition of human PDE2
observable: IC50 (µM)
The reply should be a number in µM, with the unit left off.

Kindly indicate its recorded IC50. Item: Cc1ccc([N+](=O)[O-])cc1S(=O)(=O)N(C)C 62

* * *

- assay.target: Dual specificity calcium/calmodulin-dependent 3',5'-cyclic nucleotide phosphodiesterase 1B (Homo sapiens, UniProt Q01064)
- Sequence (Q01064 whole entry): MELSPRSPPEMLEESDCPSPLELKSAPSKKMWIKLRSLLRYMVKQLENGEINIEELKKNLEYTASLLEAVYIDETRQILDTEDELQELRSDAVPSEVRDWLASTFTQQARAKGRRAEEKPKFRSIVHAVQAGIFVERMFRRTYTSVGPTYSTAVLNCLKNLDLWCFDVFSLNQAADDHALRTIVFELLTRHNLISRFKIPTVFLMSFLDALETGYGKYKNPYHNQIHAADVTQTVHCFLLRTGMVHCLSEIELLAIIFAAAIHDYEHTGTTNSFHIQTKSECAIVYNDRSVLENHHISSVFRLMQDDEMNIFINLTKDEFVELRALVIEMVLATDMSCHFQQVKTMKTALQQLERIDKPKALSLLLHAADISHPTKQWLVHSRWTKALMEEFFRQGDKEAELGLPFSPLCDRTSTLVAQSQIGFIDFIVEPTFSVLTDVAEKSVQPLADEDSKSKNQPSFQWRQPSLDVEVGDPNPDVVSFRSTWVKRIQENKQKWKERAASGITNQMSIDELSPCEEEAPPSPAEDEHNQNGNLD
- assay.notes: Inhibition of human PDE1B
observable: pIC50
Here pIC50 is given on a logarithmic scale as minus log10 of the concentration in mol/L.

Kindly indicate its recorded pIC50. Item: Cc1ccc([N+](=O)[O-])cc1S(=O)(=O)N(C)C 4.21

* * *

We begin with a simple list: items and their reported remaining at 2 h.
- assay.notes: Stability in human plasma assessed as parent compound remaining after 120 mins
- Assay type: ADME, cell-free
- conditions: read-out: Stability
The reply should be a number in %, with the unit left off.

chemical.string	remaining at 2 h [%]
Cc1ccc2c(=O)n(-c3ccc(OC[18F])cc3)c(CCN3C(=O)c4cccc(OC(C)C)c4C3=O)nc2c1	20

Kindly indicate its recorded remaining at 2 h. Item: Cc1ccc2c(=O)n(-c3ccc4cnn(CC[18F])c4c3)c(CCN3C(=O)c4cccc(OC(C)C)c4C3=O)nc2c1 20

* * *

- assay.notes: Stability in mouse brain measured at 15 mins
- Format: ADME, tissue-based
- conditions: read-out: Stability
We begin with a simple list: items and their reported remaining at […].
I'd appreciate it if you wrote the number followed by its unit.

chemical.string	result
O=C1Nc2c(Cl)ccc(OCC[18F])c2C2(CCCCC2)N1	84%

Now consider the entry below.
Kindly indicate its recorded remaining at […]. Item: [11CH3]n1nnc(COc2ccc(Cl)c3c2C2(CCCCC2)NC(=O)N3)n1 74%

* * *

- assay.target: cGMP-dependent 3',5'-cyclic phosphodiesterase (Homo sapiens)
- assay.notes: Inhibition of human PDE2A
We begin with a simple list: items and their reported IC50.
The reply should be a number in nM, with the unit left off.

chemical.string	IC50 / nM
COc1ccc2nnc3c(C)nc(-c4cc(OCCC[18F])ccc4F)n3c2n1	11.4

Now consider the entry below.
Kindly indicate its recorded IC50. Item: COc1ccc2nnc3c(C)nc(-c4cc(OCCCC[18F])ccc4F)n3c2n1 913
